For each entry below, report its % UTC (Yap1 mRNA) value.
Tested on: Yap1 mRNA
Test: Dose-dependent inhibition of human Yap1 in A-431 cells (Example 8, 10,000 cells per well, RTS4814)
Type: cell-based
Settings: 125.0 nM; A-431 cells
Strand notation (5' to 3'): a small letter for the sugar, then the base; units joined by * are phosphorothioate-linked, units joined directly phosphodiester-linked; [ ] holds rarer units or linkages, { } end groups; capitals alone tell only the bases. k = constrained ethyl (cEt); [5mC] = 5-methylcytosine; d = 2'-deoxy (DNA)
Write the value in % UTC as a bare number.

Bench note: what % UTC (Yap1 mRNA) did 1074487 (kA*kG*kA*dT*dT*d[5mC]*dA*d[5mC]*dT*dA*dA*dT*dA*kT*kG*kG; antisense) [compound 1074487] show? 28

1074421 (kT*kG*kA*dT*dT*d[5mC]*dT*dT*dT*dA*dG*dA*dG*k[5mC]*k[5mC]*kA; antisense) [compound 1074421] , same question. 29

1075093 (k[5mC]*kA*kA*dA*dG*dT*dA*dA*dG*dG*dT*dA*dT*kG*kA*kG; antisense) [compound 1075093] , same question. 26

* * *

Tested on: Yap1 mRNA
Experiment: Dose-dependent inhibition of human Yap1 in A-431 cells (Example 8, 10,000 cells per well, RTS4814)
Format: cell-based
Conditions: 500.0 nM; A-431 cells, 10,000 cells per well, free uptake, approximately 48 hours, RTS4814
Strand notation (5' to 3'): a small letter for the sugar, then the base; units joined by * are phosphorothioate-linked, units joined directly phosphodiester-linked; [ ] holds rarer units or linkages, { } end groups; capitals alone tell only the bases. k = constrained ethyl (cEt); [5mC] = 5-methylcytosine; d = 2'-deoxy (DNA)
# cutoff 10 % UTC applies to Yap1 mRNA, % UTC; >= gives criterion met, < gives criterion not met

Test whether the substance 1075819 (kG*kT*kA*dT*dA*dT*d[5mC]*d[5mC]*dG*dT*dT*d[5mC]*dT*k[5mC]*kA*kT; antisense) [compound 1075819] records Yap1 mRNA, % UTC of 10 % UTC or higher. criterion not met

1075781 (k[5mC]*kA*kT*dA*dT*dA*dT*dT*dG*dT*dG*dA*d[5mC]*kT*kT*k[5mC]; antisense) [compound 1075781] , same question. criterion not met

1074626 (DNA k[5mC]*kT*kG*dT*dT*dA*dT*dG*dA*dA*d[5mC]*d[5mC]*d[5mC]*kT*kT*kG) [compound 1074626] , same question. criterion not met

1075689 (k[5mC]*kA*kA*d[5mC]*dT*dA*dT*dA*d[5mC]*dA*dA*dG*dG*k[5mC]*kA*kA; antisense) [compound 1075689] , same question. criterion met

1076530 (kA*kG*kT*dA*dT*dA*dA*dA*dG*d[5mC]*dA*dG*dG*kG*k[5mC]*kA; antisense) [compound 1076530] , same question. criterion met

1075089 (k[5mC]*kA*kT*dT*dT*dA*dT*dA*dG*dT*d[5mC]*dA*dG*kG*kT*kT; antisense) [compound 1075089] , same question. criterion not met

* * *

System: Yap1 mRNA
Assay: Dose-dependent inhibition of human Yap1 in A-431 cells (Example 6, 5,000 cells per well, RTS4814)
Format: cell-based
Conditions: Table 55; 4000 nM, free uptake, A-431 cells 5,000 cells per well, 48 hours, RTS4814
Strand notation (5' to 3'): a small letter for the sugar, then the base; units joined by * are phosphorothioate-linked, units joined directly phosphodiester-linked; [ ] holds rarer units or linkages, { } end groups; capitals alone tell only the bases. k = constrained ethyl (cEt); [5mC] = 5-methylcytosine; d = 2'-deoxy (DNA)
PROPERTY LABEL: Yap1 mRNA, % UTC (% UTC)
Write the value in % UTC as a bare number.

Bench note: what Yap1 mRNA, % UTC did 716407 (antisense k[5mC]*kT*kT*dA*dG*dT*d[5mC]*d[5mC]*dA*d[5mC]*dT*dG*dT*k[5mC]*kT*kG) [compound 716407] show? 39

716548 (antisense kG*kA*kG*dT*dT*dT*d[5mC]*dA*dA*d[5mC]*dA*d[5mC]*dT*kG*kA*kT) [compound 716548] , same question. 67

716501 (antisense kG*k[5mC]*kA*d[5mC]*dT*dG*dA*dA*dA*dG*dT*dA*d[5mC]*kT*kT*kA) [compound 716501] , same question. 55

716513 (antisense kA*kA*kT*d[5mC]*dT*dT*dA*dA*dT*d[5mC]*dT*dG*dT*kG*kG*k[5mC]) [compound 716513] , same question. 39

716500 (antisense kA*kA*k[5mC]*dT*dT*d[5mC]*dT*dT*dA*d[5mC]*dT*dT*d[5mC]*k[5mC]*kA*kA) [compound 716500] , same question. 46

716489 (antisense kA*kG*kT*dT*dA*dA*dT*dT*d[5mC]*dA*dT*dG*d[5mC]*kT*k[5mC]*kG) [compound 716489] , same question. 61

716480 (antisense kG*k[5mC]*kA*dA*dG*dT*d[5mC]*dT*dT*dG*dT*dA*dA*kG*kT*kA) [compound 716480] , same question. 39

716554 (antisense kA*kT*kG*d[5mC]*dT*dT*dG*d[5mC]*dG*dA*dG*dG*dA*kT*kA*kA) [compound 716554] , same question. 50

716419 (antisense kT*kT*kT*d[5mC]*d[5mC]*dG*dG*dT*dG*d[5mC]*dA*dT*dG*kT*kG*kT) [compound 716419] , same question. 47

716537 (antisense kA*kT*kG*dT*dG*d[5mC]*dT*d[5mC]*d[5mC]*dA*dT*d[5mC]*dA*kA*k[5mC]*k[5mC]) [compound 716537] , same question. 63

716455 (antisense kG*kT*kT*dA*dT*dG*dT*dT*dT*dG*dG*dG*dT*kG*kT*kG) [compound 716455] , same question. 25

716387 (antisense kT*kA*kT*dG*dG*dT*dT*dT*dA*dT*dA*dT*dA*kG*kT*kA) [compound 716387] , same question. 67

716438 (antisense kA*kT*kT*dT*dT*dT*dG*dG*d[5mC]*dT*dT*dG*dT*k[5mC]*kA*kG) [compound 716438] , same question. 49

* * *

For each entry below, report its % UTC (Yap1 mRNA) value.
Tested on: Yap1 mRNA
Assay: Dose-dependent inhibition of human Yap1 in A-431 cells (Example 8, 10,000 cells per well, RTS4814)
Type: cell-based
Details: 2000.00 nM; A-431 cells
Strand notation (5' to 3'): a small letter for the sugar, then the base; units joined by * are phosphorothioate-linked, units joined directly phosphodiester-linked; [ ] holds rarer units or linkages, { } end groups; capitals alone tell only the bases. k = constrained ethyl (cEt); [5mC] = 5-methylcytosine; d = 2'-deoxy (DNA)
Write the value in % UTC as a bare number.

Record lookup: for Yap1 mRNA, what % UTC (Yap1 mRNA) belongs to 1074485 (kT*kT*k[5mC]*dA*d[5mC]*dT*dA*dA*dT*dA*dT*dG*dG*kT*k[5mC]*kA; antisense) [compound 1074485] ? 3

1074775 (kG*kG*kT*dT*dT*dA*dT*dT*dG*dT*dA*dA*dA*kA*kG*k[5mC]; antisense) [compound 1074775] , same question. 2

1075701 (kA*kA*kT*dT*dA*d[5mC]*dT*dA*dG*dA*dG*dG*d[5mC]*kT*kT*k[5mC]; antisense) [compound 1075701] , same question. 6

958499 (ATTAGAGTATGTGGCA; 3-10-3 cEt gapmer, further chemistry not given here) [compound 958499] , same question. 2

1074613 (DNA k[5mC]*kA*kT*dA*dG*d[5mC]*dT*dT*dA*dT*dA*dT*dT*kG*kA*kA; antisense) [compound 1074613] , same question. 6

1076084 (k[5mC]*kA*kT*d[5mC]*dA*dA*dT*dA*dG*dA*dG*dA*dG*kT*k[5mC]*kG; antisense) [compound 1076084] , same question. 8

1074230 (antisense kA*kA*kG*dA*dA*dG*dA*d[5mC]*dT*dG*dT*d[5mC]*dG*kA*kA*kG) [compound 1074230] , same question. 8

1074421 (kT*kG*kA*dT*dT*d[5mC]*dT*dT*dT*dA*dG*dA*dG*k[5mC]*k[5mC]*kA; antisense) [compound 1074421] , same question. 5

1076406 (antisense kA*kT*kT*dA*dT*dT*dT*dA*dA*dG*dA*d[5mC]*d[5mC]*kT*kG*kG) [compound 1076406] , same question. 7

1076471 (k[5mC]*kA*kT*dT*dA*dG*dA*d[5mC]*dT*dA*dG*dG*d[5mC]*kT*kT*kT; antisense) [compound 1076471] , same question. 5

1076183 (k[5mC]*kT*kT*d[5mC]*dT*dA*dT*dA*dA*dT*dT*dA*dG*k[5mC]*k[5mC]*kA; antisense) [compound 1076183] , same question. 6

1076085 (kA*k[5mC]*kT*dA*dA*dT*dA*dG*dG*d[5mC]*d[5mC]*dA*dT*k[5mC]*kT*kG; antisense) [compound 1076085] , same question. 9

1075222 (kG*kT*kA*dT*dT*dT*dG*dG*dA*d[5mC]*dA*dA*d[5mC]*kT*k[5mC]*kT; antisense) [compound 1075222] , same question. 5

Reference for the values: patent US11214803B2
